test system: CDC2L1; construct: gene CDK11B; settings: concentration: 1 μM,replicates: in singlicate; n = 1;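 note: KINOMEscan kinase panel screen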
Endpoint: %Inh (%)
Note: unit % is implicit; provide only the numeric part.

# example entries with known answers
Molecule: Cn1cc(-c2cccc3c(N)c(C(N)=O)nnc23)cn1
%Inh [%]: 1
--
Molecule: O=C(Nc1n[nH]c2cc(-c3ccco3)ccc12)C1CC1 [SB-737447]
%Inh [%]: 0
--
Molecule: CN(c1ccccc1CNc1nc(Nc2ccc3c(c2)CC(=O)N3)ncc1C(F)(F)F)S(C)(=O)=O
%Inh [%]: 0
--
Molecule: FC(F)(F)c1cc(Br)cc(Nc2nccc(-c3cnn4ncccc34)n2)c1 [GW810578]
%Inh [%]: 0

Attention now shifts to the item below.
Answer with the recorded %Inh of CC(C)c1nc(-c2cccc(NS(=O)(=O)c3ccccc3)c2)c(-c2ccnc(Nc3ccc4c(c3)CN(C)CC4)n2)s1 [GSK1649598] only.
15

----------
tested on: MLCK; construct: gene MYLK3; conditions: concentration: 1 μM,replicates: in singlicate; n = 1
Assign class 1 whenever %Inh does not fall below 2%; assign class 0 whenever it does.

Is %Inh for CCN1CCN(CCCC(=O)Nc2n[nH]c3nc(-c4ccc(O)cc4)c(Br)cc23)CC1 at or above 2%?
class 1

----------
tested on: DRAK2; construct: gene STK17B; details: concentration: 1 μM,replicates: in singlicate; n = 1
As shown below, each of these compounds has a reported %Inh value.
# unit: % | format: bare number

Answered examples (10):
Compound: Cn1ccc2ncnc(Oc3ccc(NC(=O)Nc4cccc(C(F)(F)F)c4)c(F)c3)c21
%Inh (%): 24
//
Compound: O=c1[nH]cc(-c2ccc(O)cc2)c2sc(-c3ccncc3)cc12
%Inh (%): 0
//
Compound: Cc1ccc(C(=O)Nc2ccc(Oc3ccc4nc(NC(=O)C5CC5)cn4c3)c(F)c2)c(=O)n1-c1ccccc1
%Inh (%): 1
//
Compound: COc1cc2ncn(-c3cc(OCC4CCCCC4)c(C(N)=O)s3)c2cc1OC
%Inh (%): 0
//
Compound: Cc1ccn2nc(-c3ccc(F)cc3)c(-c3ccncc3)c2c1.Cl
%Inh (%): 0
//
Compound: O=C(Nc1n[nH]c2cc(-c3ccco3)ccc12)C1CC1
%Inh (%): 0
//
Compound: Cc1cccc2c(-c3ccncc3)c(-c3ccc(F)cc3)nn12.Cl
%Inh (%): 0
//
Compound: Cl.Nc1n[nH]c2cc(-c3ccccn3)ccc12
%Inh (%): 0
//
Compound: O=C(Nc1cccc(C(F)(F)F)c1)c1cccc(Oc2ccc3nccn3n2)c1
%Inh (%): 0
//
Compound: CSc1nccc(-c2c(-c3ccc(F)cc3)ncn2CCCN2CCOCC2)n1.Cl
%Inh (%): 0

Return %Inh for the following compound: CS(=O)(=O)c1cccc(CNc2nc(Nc3ccc4c(c3)[C@@H]3C[C@@H]4CNC3=O)ncc2C(F)(F)F)c1
96.4

Return %Inh (reported value) for this compound: C[C@@H](Oc1cc(-n2cnc3cc(-c4ccncc4)ccc32)sc1C(N)=O)c1ccccc1Cl
0

Fill in %Inh for record COc1cccc(CNC(=O)NC2CCN(c3ccnc(Nc4cc(OC)c(OC)c(OC)c4)n3)C2)c1 (centres unmarked)
0

Write down %Inh measured for item Cn1ccc2ncnc(Oc3ccc(NC(=O)Nc4cnn(C(C)(C)C)c4)c(Cl)c3)c21
3

Supply recorded %Inh for C[C@@H](Oc1cc(-n2cnc3ccc(-c4ccncc4)cc32)sc1C(N)=O)c1ccccc1Cl here.
0

Identify the reported %Inh for the following entry. CC(C)c1nc(-c2cccc(NS(=O)(=O)c3ccccc3)c2)c(-c2ccnc(Nc3ccc4c(c3)CN(C)CC4)n2)s1
0

Note %Inh for the compound shown: CCn1c(-c2nonc2N)nc2cncc(CNC3CCNCC3)c21.Cl
0

Identify the reported %Inh for the following entry. CC(=O)c1c(-c2ccncc2)[nH]c(-c2ccncc2)c1C
76

Please supply the value of reported %Inh for the item COc1cc2c(Nc3ccc(NC(=O)c4ccccc4)cc3)ncnc2cc1OCCCN1CCOCC1
0

Return %Inh (reported value) for this compound: Cc1cccc(-c2nc(Nc3ccncc3)c3sccc3n2)n1
13

In one line, give reported %Inh of the entry C[C@@H]1CNc2c(sc3ccc4nc(-c5ccc(O)cc5)ccc4c23)C(=O)N1 .
100

Find the measured %Inh of CC(C(=O)NC1CCN(c2ccnc(Nc3ccc(F)cc3)n2)C1)c1ccc(Cl)cc1 (centres unmarked) and report it.
0

Complete the entry with %Inh for O=C(NCC1CC1)c1ccc(-c2cc(C(=O)NC3CC3)ccc2F)cc1
0

# return recorded %Inh for entry c1ccc(Oc2ccc(Nc3ccnc4ccc(-c5ccccn5)cc34)cc2)cc1
0

Give the reported value of %Inh for this record: O=C(NOCC1CC1)c1cc(Br)c(F)c(F)c1Nc1ccc(I)cc1Cl
0

----------
system: DCAMKL1; construct: gene DCLK1; details: concentration: 1 μM,replicates: in singlicate; n = 1
Readings of %Inh for the listed compounds

# example entries with known answers
Compound: CC(C(=O)NC1CCN(c2ccnc(Nc3ccc(F)cc3)n2)C1)c1ccc(Cl)cc1 (centres unmarked)
Tested On: DCAMKL1
Result: 0%
//
Compound: Cn1ccc2ncnc(Oc3ccc(NC(=O)Nc4ccnc(C(F)(F)F)c4)c(Cl)c3)c21
Tested On: DCAMKL1
Result: 4%
//
Compound: COC(=O)Nc1nc2cc(Oc3ccc(NC(=O)Nc4cc(C(F)(F)F)ccc4Cl)cc3)ccc2[nH]1.Cl
Tested On: DCAMKL1
Result: 0%
//
Compound: O=C(Nc1cccc(C(F)(F)F)c1)c1cccc(Oc2ccc3nccn3n2)c1
Tested On: DCAMKL1
Result: 0%
//
Compound: O=c1[nH]cc(-c2ccc(O)cc2)c2sc(-c3ccncc3)cc12
Tested On: DCAMKL1
Result: 8%

For CNC(=O)c1ccccc1Nc1nc(Nc2cccc(CS(C)(=O)=O)c2)ncc1C.O=CO , write its %Inh.
37%

For the compound CC(C)S(=O)(=O)N1CCN(Cc2ccc3c(c2)nc(NC(=O)c2ccsc2)n3C[C@H](O)c2ccccc2)CC1 , give its reported %Inh.
0%

Supply reported %Inh belonging to this compound: Cl.Cl.NC[C@H](CC1CCCCC1)NC(=O)c1ccc(-c2ccnc3[nH]ccc23)s1
0%

Specify reported %Inh for the compound shown: COc1cccc(OC)c1C(=O)Nc1cccc(-c2nn3ccccc3c2-c2ccnc(Nc3cccc(F)c3)n2)c1
16%

Entry CS(=O)c1ccc(-c2coc3ccc(-c4n[nH]c(=O)o4)cc23)cc1 (centres unmarked) needs its %Inh filled in; supply it.
3%

Note down %Inh recorded for Cc1cccc2c(-c3ccncc3)c(-c3ccc(F)cc3)nn12.Cl
10%

Check the records and state %Inh for CN1CCN(CCCNc2nccc(-c3c(-c4ccc(F)cc4)nn4cc(C(N)=O)ccc34)n2)CC1
21%

Give reported %Inh value for OCCn1cc(-c2cnc3nnn(Cc4ccc5ncccc5c4)c3n2)cn1
66%

Answer with the recorded %Inh for the compound listed here: Cn1ccc2ncnc(Oc3ccc(NC(=O)Nc4cccc(C(F)(F)F)c4)c(Cl)c3)c21
46%

Could you please provide reported %Inh for CS(=O)(=O)c1cccc(CNc2nc(Nc3ccc4c(c3)[C@@H]3C[C@@H]4CNC3=O)ncc2C(F)(F)F)c1 ? Thanks!
48%

Supply recorded %Inh for COc1cc2c(Nc3ccc(NC(=O)c4ccccc4)cc3)ncnc2cc1OCCCN1CCOCC1 here.
13%

Provide %Inh value for the following compound: COc1cc(Nc2nccc(N3CCC(NC(=O)c4cccc(C#N)c4)C3)n2)cc(OC)c1OC (centres unmarked)
5%

----------
test system: RIPK4; conditions: concentration: 1 μM,replicates: in singlicate; n = 1
Listed compounds paired with reported %Inh
Expressed in %, but write only the number.

For orientation, consider the following solved cases.
Chemical Structure: Cn1ccc2ncnc(Oc3ccc(NC(=O)Nc4cccc(C(F)(F)F)c4)c(F)c3)c21
Endpoint: %Inh
Readout Number: 0

Chemical Structure: CC(=O)Nc1nc2cnc(Nc3cc(NC(=O)c4cccc(CC(C)(C)C#N)c4)ccc3C)nc2s1
Endpoint: %Inh
Readout Number: 25

Chemical Structure: OCCn1cc(-c2cnc3nnn(Cc4ccc5ncccc5c4)c3n2)cn1
Endpoint: %Inh
Readout Number: 0

Chemical Structure: FC(F)(F)c1cc(Br)cc(Nc2nccc(-c3cnn4ncccc34)n2)c1
Endpoint: %Inh
Readout Number: 20

Chemical Structure: COC(=O)c1cccc(NC(=O)NC2CCN(c3ccnc(NCc4ccc(F)cc4)n3)CC2)c1
Endpoint: %Inh
Readout Number: 5

Chemical Structure: O=C1NCCc2[nH]c(-c3ccncc3)cc21
Endpoint: %Inh
Readout Number: 56

Chemical Structure: O=C(NCC1CC1)c1ccc(-c2cc(C(=O)NC3CC3)ccc2F)cc1
Endpoint: %Inh
Readout Number: 0

Chemical Structure: COc1cccc(C2=C(Nc3cccc(Cl)c3)C(=O)NC2=O)c1
Endpoint: %Inh
Readout Number: 4

Pending compound:
Please indicate %Inh recorded for C[C@@H](Oc1cc(-n2cnc3ccc(-c4ccncc4)cc32)sc1C(N)=O)c1ccccc1Cl
0
